- tested target: T1, Full-length human CD96 on CHO-S cells (human, UniProt P40200 22-585)
- T1 construct: also called CD96-CHOs; hCD96-CHOs
- T1 sequence: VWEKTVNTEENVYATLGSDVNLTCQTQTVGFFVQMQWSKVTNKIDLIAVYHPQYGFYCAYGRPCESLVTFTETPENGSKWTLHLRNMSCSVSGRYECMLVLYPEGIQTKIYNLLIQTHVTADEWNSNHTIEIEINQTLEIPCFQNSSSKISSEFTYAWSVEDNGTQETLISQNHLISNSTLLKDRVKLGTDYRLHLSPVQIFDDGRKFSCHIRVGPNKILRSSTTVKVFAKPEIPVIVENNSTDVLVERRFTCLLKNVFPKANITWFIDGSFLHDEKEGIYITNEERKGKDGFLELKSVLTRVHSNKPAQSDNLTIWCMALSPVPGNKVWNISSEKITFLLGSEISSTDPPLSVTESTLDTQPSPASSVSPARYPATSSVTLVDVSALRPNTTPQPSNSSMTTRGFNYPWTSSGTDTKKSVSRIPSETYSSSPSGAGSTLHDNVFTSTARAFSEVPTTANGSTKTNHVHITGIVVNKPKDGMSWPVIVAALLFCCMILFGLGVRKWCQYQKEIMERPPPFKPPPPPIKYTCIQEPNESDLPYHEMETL
- assay summary: cell ELISA, fixed CD96-overexpressing CHO-S cells
readout: pEC50
The quantity pEC50 is defined as the negative base-10 logarithm of the molar concentration.

# count of solved cases: 2
h1719-014 (antibody, V domains shown, Only variable regions are tied to this name; also called M719-014) VH: EVTLKESGPVLVKPTETLTLTCTVSGFSLSSYGVSWVRQPPGKGLEWLGVIWGDGNTNYHSVLISRLTISKDTSKSQVVLTLTNMDPVDTATYYCAKNYYYGSRYGYPLDYWGQGTTVTVSS VL: DIQMTQSPSSVSASVGDRVTITCKATQDVGTAVAWYQQKPGKSPKLLIYWASTRHTGVPERFSGSGSGTDFTLTISSLQPEDFATYFCQQYGSSVLTFGGGTKVEIK; 10.70
ch1720 (antibody, human IgG4 S228P, kappa, V domains shown, also called chimeric antibody corresponding to m1720) VH: EFQLQQSGPELVKPGASVKISCKASAYSLTDYNMNWVKQSNGKSLEWIGVINPSYGISSYNQKFKGKATLTVDQSSSTAYMHLNSLTSEDSAVYYCARQLRLPGYFDVWGTGTTVTVSS VL: DIKMTQSPSSKNASLGERVTITCKASQDINSYLNWFQQKPGKSPKTLIYRASRLVDGVPSRFSGSGSGQDYSLTISSLEYEDMGIYYCLKYDEFPYTFGGGTKLEIKR; 10.44

Input: Requested read-out: pEC50. Entry: ch1719 (antibody, human IgG4 S228P, kappa, V domains shown, also called chimeric antibody corresponding to m1719) VH: QVQLKESGPGLVAPSQSLSITCTVSGFSLISYGVSWVRQPPGKGLEWLGVIWGDGNTNYHSVLISRLSIRKDDSKSQVFLKLNSLQTDDTATYYCAKNNYYGSRYGYPMDYWGQGTSVTVSS VL: DIVMTQSHKFMSTSVGDRVSITCKATQDVGTAVAWYQQKPGHSPKLLIYWASTRHTGVPERFTGSGSGTDFTLTIDNVQSEDLADYFCQQYGSSVLTFGAGTKVELRR
Output: 10.92
